These entries and their values trace back to ChEMBL document CHEMBL2346531.

# TARGET_ENTITY: Sigma non-opioid intracellular receptor 1 (Cavia porcellus, UniProt Q60492)
# Sequence (Q60492 whole entry): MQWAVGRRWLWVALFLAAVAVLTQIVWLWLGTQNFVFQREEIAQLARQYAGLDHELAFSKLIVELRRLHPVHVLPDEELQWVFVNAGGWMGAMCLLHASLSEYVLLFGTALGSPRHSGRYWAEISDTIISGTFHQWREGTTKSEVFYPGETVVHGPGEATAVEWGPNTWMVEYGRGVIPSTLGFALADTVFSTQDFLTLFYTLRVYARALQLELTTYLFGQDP
# PROTOCOL_DESCRIPTION: Displacement of [3H]pentazocine from sigma 1 receptor in Dunkin guinea pig brain membrane without cerebellum by competition binding assay
Note to self: Ki under 90 nM means condition met, ties and anything higher get condition not met.

# input Is it true that Ki reported for COc1ccc2c(c1)CCCC2CCCCN1C(C)(C)CCCC1(C)C (stereo not drawn) is less than 90 nM?
# output condition met

# input Is it true that Ki reported for COc1ccc2c(CCCCN3[C@H](C)CCC[C@@H]3C)cccc2c1.Cl is less than 90 nM?
# output condition met

# input Is it true that Ki reported for COc1ccc2c(c1)CCCC2CCCN1C(C)(C)CCCC1(C)C (stereo not drawn) is less than 90 nM?
# output condition not met

# input Is it true that Ki reported for COc1ccc2c(CCCN3[C@H](C)CCC[C@@H]3C)cccc2c1 is less than 90 nM?
# output condition met

# input Is it true that Ki reported for COc1ccc2c(c1)CCCC2CCCCN1[C@H](C)CCC[C@@H]1C (stereo partly drawn) is less than 90 nM?
# output condition met

# input Is it true that Ki reported for COc1ccc2c(c1)CCCC2CCCN1[C@H](C)CCC[C@@H]1C (stereo partly drawn) is less than 90 nM?
# output condition not met

# input Is it true that Ki reported for COc1ccc2c(CCCN3C(C)(C)CCCC3(C)C)cccc2c1 is less than 90 nM?
# output condition not met

====

# PROTOCOL_DESCRIPTION: Displacement of [3H]DTG from sigma 2 receptor in Wistar Hannover rat liver membrane by competition binding assay
# Assay type: cell membranes
Note to self: Ki under 90 nM means YES, ties and anything higher get NO.

# input Is it true that Ki reported for COc1ccc2c(CCCN3CCCCC3(C)C)cccc2c1 is less than 90 nM?
# output NO

# input Is it true that Ki reported for COc1ccc2c(c1)CCCC2CCCCN1C(C)(C)CCCC1(C)C (stereo not given) is less than 90 nM?
# output YES

# input Is it true that Ki reported for COc1ccc2c(c1)CCCC2CCCN1CCCCC1(C)C (stereo not given) is less than 90 nM?
# output NO
